tested_system: full length human BTLA expressed on cells (human, UniProt Q7Z6A9 31-289); also: test concentration or dose not given here
assay_method_text: cell-based or functional assay
measurement_type: T cell reporter (NFκB signaling)

INSERT INTO results (binder, result) VALUES
  ('7A1 (antibody, IgG1, V domains shown, mIgG1) VH: QVQLQQSGPELVKPGASVKISCKASGYAFSSSWMNWVKQRPGKGLEWIGRIYPGDGDTNYNGKFKGKATLTADKSSSTAYMQLSSLTSEDSAVYFCARRGYGYLAYWGQGTLVTVSA VL: DIVMTQSHKFMSTSVGDRVSITCKASQDVSTAVAWYQQKPGQSPKLLIYSASYRYTGVPDRFTGSGSGTDFTFTISSVQAEDLAVYYCQQHYSTPWTFGGGTKLEIK', '20 % inhibition');

Provenance of the data: patent US20230235058A1
